- System Under Test: S100A12 (Homo sapiens, UniProt P80511)
- Sequence (P80511 whole entry): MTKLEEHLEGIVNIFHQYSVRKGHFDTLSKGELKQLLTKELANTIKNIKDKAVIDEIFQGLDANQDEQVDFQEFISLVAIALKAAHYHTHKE
pKd: −log10 of the molar value.
Measured Property: pKd

Completed entries (count: 2):
CC[C@H](C)[C@@H](CC(=O)N[C@H]1CCCC[C@@H]1C(=O)NCC(=O)N[C@@H](CCCCNC(=O)c1ccc2c(c1)C1(OC2=O)c2ccc(O)cc2Oc2cc(O)ccc21)C(N)=O)NC(=O)[C@H]1CCCC[C@@H]1NC(=O)[C@H]1CCCC[C@@H]1NC(=O)C[C@@H](NC(=O)[C@H]1CCCC[C@@H]1N)[C@@H](C)O : < 3.00
N=C(N)NCCC[C@@H](CC(=O)N[C@H]1CCCC[C@@H]1C(=O)NCC(=O)N[C@@H](CCCCNC(=O)c1ccc2c(c1)C1(OC2=O)c2ccc(O)cc2Oc2cc(O)ccc21)C(N)=O)NC(=O)[C@H]1CCCC[C@@H]1NC(=O)[C@H]1CCCC[C@@H]1NC(=O)C[C@H](CCCNC(=N)N)NC(=O)[C@H]1CCCC[C@@H]1N : < 3.00

Below are some compounds; for each one, tell me its pKd.
1. C[C@@H](O)[C@@H](CC(=O)N[C@H]1CCCC[C@@H]1C(=O)N[C@H]1CCCC[C@@H]1C(=O)N[C@H](CC(=O)N[C@H]1CCCC[C@@H]1C(=O)NCC(=O)N[C@@H](CCCCNC(=O)c1ccc2c(c1)C1(OC2=O)c2ccc(O)cc2Oc2cc(O)ccc21)C(N)=O)Cc1c[nH]c2ccccc12)NC(=O)[C@H]1CCCC[C@@H]1N
2. CC(C)C[C@@H](CC(=O)N[C@H]1CCCC[C@@H]1C(=O)NCC(=O)N[C@@H](CCCCNC(=O)c1ccc2c(c1)C1(OC2=O)c2ccc(O)cc2Oc2cc(O)ccc21)C(N)=O)NC(=O)[C@H]1CCCC[C@@H]1NC(=O)[C@H]1CCCC[C@@H]1NC(=O)C[C@H](Cc1c[nH]c2ccccc12)NC(=O)[C@H]1CCCC[C@@H]1N
3. CC[C@H](C)[C@@H](CC(=O)N[C@H]1CCCC[C@@H]1C(=O)N[C@H]1CCCC[C@@H]1C(=O)N[C@H](CC(=O)N[C@H]1CCCC[C@@H]1C(=O)NCC(=O)N[C@@H](CCCCNC(=O)c1ccc2c(c1)C1(OC2=O)c2ccc(O)cc2Oc2cc(O)ccc21)C(N)=O)CC(C)C)NC(=O)[C@H]1CCCC[C@@H]1N
4. CSCC[C@@H](CC(=O)N[C@H]1CCCC[C@@H]1C(=O)NCC(=O)N[C@@H](CCCCNC(=O)c1ccc2c(c1)C1(OC2=O)c2ccc(O)cc2Oc2cc(O)ccc21)C(N)=O)NC(=O)[C@H]1CCCC[C@@H]1NC(=O)[C@H]1CCCC[C@@H]1NC(=O)C[C@@H](NC(=O)[C@H]1CCCC[C@@H]1N)[C@@H](C)O
5. N=C(N)NCCC[C@@H](CC(=O)N[C@H]1CCCC[C@@H]1C(=O)N[C@H]1CCCC[C@@H]1C(=O)N[C@H](CC(=O)N[C@H]1CCCC[C@@H]1C(=O)NCC(=O)N[C@@H](CCCCNC(=O)c1ccc2c(c1)C1(OC2=O)c2ccc(O)cc2Oc2cc(O)ccc21)C(N)=O)Cc1ccccc1)NC(=O)[C@H]1CCCC[C@@H]1N

Result block:
< 3.00
3.60
< 3.00
< 3.00
< 3.00

Provenance of the data: paper PMC8991199
